Here the recorded pIC50 is given for each entry.
molecular target: catalytic domain of human PARP14 (Homo sapiens (Human)); experiment: Enzymatic assay for inhibition of PARP14 (DELFIA, auto-modification with biotin-NAD); settings: auto-modification of PARP14 by biotin-NAD, 50 nM PARP14, 3 μM biotin-NAD
Sequence (Q460N5 1611-1801): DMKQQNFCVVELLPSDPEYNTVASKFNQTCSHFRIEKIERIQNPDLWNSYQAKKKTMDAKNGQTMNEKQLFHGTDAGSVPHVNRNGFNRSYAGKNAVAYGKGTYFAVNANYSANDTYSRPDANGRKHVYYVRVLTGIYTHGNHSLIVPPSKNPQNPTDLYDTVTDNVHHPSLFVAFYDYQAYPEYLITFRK
pIC50: −log10 of the molar value. Counter-ions that a name gives are not always drawn.

Solved cases (5 shown):
                                   compound                         system_under_test  measurement_name  assay_result
0  Cc1cccc2c(=O)[nH]c(CS[C@H]3CCC[C@H](N)CC3)nc12 (relative stereo) [Example 54, Trifluoroacetate]  catalytic domain of human PARP14 (Homo sapiens (Human))             pIC50  5.00 to 6.00
1  Cc1c(Nc2ccccc2)ccc2c(=O)[nH]c(CSC3CCOCC3)nc12  catalytic domain of human PARP14 (Homo sapiens (Human))             pIC50  5.00 to 6.00
2  O=c1[nH]c(CSC2CCOCC2)nc2cc(NC[C@@H]3CCOC3)c(F)c(F)c12 [Example 323a]  catalytic domain of human PARP14 (Homo sapiens (Human))             pIC50        > 6.00
3  O=c1[nH]c(CS[C@H]2CC[C@@H](CO)CC2)nc2cc(NC3CCCCC3)ccc12  catalytic domain of human PARP14 (Homo sapiens (Human))             pIC50        > 6.00
4  O=c1[nH]c(CS[C@H]2CC[C@H](O)CC2)nc2cc(N[C@@H]3CCCOC3)c(F)c(F)c12  catalytic domain of human PARP14 (Homo sapiens (Human))             pIC50        > 6.00

Ask: Kindly state the measured pIC50 obtained for Cc1cccnc1CN1CCC(SCc2nc3c(C)cccc3c(=O)[nH]2)CC1 [Example 146, bistrifluoroacetate] with catalytic domain of human PARP14 (Homo sapiens (Human)).
Reply: > 6.00

Ask: Kindly state the measured pIC50 obtained for Cc1cccc2c(=O)[nH]c(CS[C@H]3CC[C@@H](C(N)=O)CC3)nc12 with catalytic domain of human PARP14 (Homo sapiens (Human)).
Reply: 5.00 to 6.00

Ask: Kindly state the measured pIC50 obtained for Cc1cccc2c(=O)[nH]c(CSC3CCN(S(=O)(=O)c4ccccn4)CC3)nc12 with catalytic domain of human PARP14 (Homo sapiens (Human)).
Reply: 5.00 to 6.00

Ask: Kindly state the measured pIC50 obtained for CNc1cc2nc(CSC3CCOCC3)[nH]c(=O)c2c(F)c1F with catalytic domain of human PARP14 (Homo sapiens (Human)).
Reply: > 6.00
